Tested on: SF-295 CNS
Experiment: NCI tumour cell line growth inhibition, 48 h
Recorded Endpoint: TGI

> print(dat)
                                   compound  test.value
1  CC(=O)OC1COC(Nc2nc(N)n(C)c(=O)c2N=O)C(OC(C)=O)C1OC(C)=O (stereo not given)     > 10 µM
2  CC(C)=CC(=O)Cc1nc2ccc([N+](=O)[O-])cc2[nH]c1=O    > 100 µM
3  NC1CC=C(COC(=O)C(O)(c2ccccc2)C2CC2)CC1 (stereo not given)    > 100 µM
4  Cc1cc(Nc2cc(N)ncn2)c(=O)n2c1C(=O)NC21CCCCC1    > 100 µM

Exercise: Tell us which TGI value is on record for O=C(O)C(Oc1nc(=S)[nH]c(=S)[nH]1)(c1ccc(Cl)cc1)c1ccc(Cl)cc1
Key: > 100 µM

====

Test system: SK-MEL-5 melanoma
Experiment: NCI tumour cell line growth inhibition, 48 h
Recorded Endpoint: log10 of TGI (log10 of the value in µM)
The base-10 logarithm of TGI, taken with TGI in µM, is what appears here.

Completed entries (count: 5):
> print(dat)
                                   compound  test.value
1                    COc1ccc(Sc2ccccc2N)cc1        1.80
2    CN1CCN(C2=CC(=O)c3c(O)ccc(O)c3C2=O)CC1       -0.49
3        Cc1cc(I)cc(CN(C)CCCN2CCN(C)CC2)c1O        1.48
4  COC1OC2=CCC3C(=O)NC(=O)C3C2[C@H](OCc2ccccc2)C1OCc1ccccc1 (some centres not stated)        1.53
5  COc1ccc(C(=O)/C=C/c2cc(O)c(O)cc2F)c(OC)c1        1.32

Would you mind listing log10 of TGI for each of the following compounds?
1. [N-]=[N+]=Nc1c([N+](=O)[O-])c(=O)n2c3c(cccc13)CCC2
2. Cc1cc(S(=O)(=O)/N=C(/NN)NNc2cccc(C(F)(F)F)n2)c(S)cc1Cl
3. NNC(=O)C(=O)N/N=C(\CCC(=O)Nc1ccc(Cl)cc1)Cc1nc2ccccc2s1
4. O=Nc1c(-c2c(O)[nH]c3ccc(Br)cc23)[nH]c2ccccc12
5. CCC(NC1=NCCO1)c1cccs1 (configuration not stated)

Key:
1: 1.48; 2: 1.58; 3: 1.64; 4: 0.40; 5: 1.49

====

Tested on: NCI-H23 lung
Assay: NCI tumour cell line growth inhibition, 48 h; in the data active = GI50 below about 0.43 µM; inactive = the rest
One label from this list, please: Yes = active, No = inactive

> print(dat)
                                   compound  label.value
1  CCN(c1cc(C#CCN2CCOCC2)cc(C(=O)NCc2c(C)cc(C)[nH]c2=O)c1C)C1CCC(N(C)CCOC)CC1 (centres undefined)           No

Exercise: What outcome does the record of this test show for O=c1oc2c(C(F)(F)F)cccc2cc1-c1csc(Nc2ccc(OCCF)cc2)n1 ?
Key: Yes

Exercise: What outcome does the record of this test show for CCSc1ccc(C2C(Br)C(=O)N2c2cc(OC)c(OC)c(OC)c2)cc1 (centres undefined) ?
Key: No

Exercise: What outcome does the record of this test show for CC1=NN(c2nc(N)nc(/C=C\c3ccc([N+](=O)[O-])s3)n2)C(C)(C)C1 ?
Key: No

Exercise: What outcome does the record of this test show for CS(=O)(=O)N(c1cc(-c2ccc3ncnc(Nc4cccc(Cl)c4)c3c2)cnc1Cl)S(C)(=O)=O ?
Key: Yes

Exercise: What outcome does the record of this test show for Cc1cc(Nc2cc(N)ncn2)c(=O)n2c1C(=O)NC21CCCCC1 ?
Key: No

Exercise: What outcome does the record of this test show for C[C@@H](Nc1nc(Nc2ccc(F)c(Cl)c2)nc2ccccc12)C1CC1 ?
Key: No

Exercise: What outcome does the record of this test show for Cc1ccc(Sc2cc3c(oc2=O)-c2ccccc2OC3O)cc1 (centres undefined) ?
Key: No

Exercise: What outcome does the record of this test show for Nc1ncc(-c2cccc(S(N)(=O)=O)c2)c2scc(-c3ccc(F)c(Cl)c3)c12 ?
Key: No
